# System: PANC-1 cells
# method summary: Viability assay (CellTiter Blue), PANC-1 cells, hypoxia vs normoxia
# Type: cell-based, human
# measurement context: PANC1, hypoxic conditions; read-out: IC50 (μM) [1]
# Protocol: PANC-1 and HaCat cells (PANC-1: RRID:CVCL 0480, taken from a person, HaCat: RRID:CVCL 0038) were cultured in DMEM (Gibco, Cat #: 21969-035) supplemented with FBS (10%, Gibco, Cat #: A31698-02), Penicillin/Streptomycin (1%, Sigma-Aldrich, Cat #: P0781), and Ala-Gln (200 μM, Sigma-Aldrich, Cat #: G8541). BxPC3 cells (RRID:CVCL 0186, taken from a person) were cultured in RPMI 1640 (Gibco, Cat #: 61870-010) supplemented with FBS (10%) and Penicillin/Streptomycin (1%). […]
Attribute: IC50
Numeric only. Scale: µM

compound	endpoint unit	IC50
C=C1C=CC(=O)N(C)CC(=O)NCCOc2cc(CCCCCCCCCCCC)ccc2C(=O)N1 [PH466]	µM	1.8
C=C1/C=C/C(=O)N(C)CC(=O)N2CC(F)(F)C[C@H]2COc2cc(CCCCCCCCCCCC)ccc2C(=O)N1 [PH905]	µM	5.4

From here, focus on the item given below.
Given the entry C=C1/C=C/C(=O)N(C)CC(=O)N2CCC[C@H]2COc2cc(CCCCCCCCCCCC)ccc2C(=O)N1 [PH921] , report its measured IC50.
2.6
